Measured response (Arbitrary Units) accompanies every entry in the list below.
B1: wild-type US28 receptor with a C-terminal natural peptide tag (US28-NP) [human cytomegalovirus (HCMV)] / LgBiT-Gα12 [not stated] (parent)
chain 1: MTPTTTTAELTTEFDYDEDATPCVFTDVLNQSKPVTLFLYGVVFLFGSIGNFLVIFTITWRRRIQCSGDVYFINLAAADLLFVCTLPLWMQYLLDHNSLASVPCTLLTACFYVAMFASLCFITEIALDRYYAIVYMRYRPVKQACLFSIFWWIFAVIIAIPHFMVVTKKDNQCMTDYDYLEVSYPIILNVELMLGAFVIPLSVISYCYYRISRIVAVSQSRHKGRIVRVLIAVVLVFIIFWLPYHLTLFVDTLKLLKWISSSCEFERSLKRALILTESLAFCHCCLNPLLYVFVGTKFRQELHCLLAEFRQRLFSRDVSWYHSMSFSRRSSPSRRETSSDTLSDEVCRVSQIIP
chain 2: MSGVVRTLSRCLLPAEAGGARERRAGSGARDAEREARRRSRDIDALLARERRAVRRLVKILLLGAGESGKSTFLKQMRIIHGREFDQKALLEFRDTIFDNILKGSRVLVDARDKLGIPWQYSENEKHGMFLMAFENKAGLPVEPATFQLYVPALSALWRDSGIREAFSRRSEFQLGESVKYFLDNLDRIGQLNYFPSKQDILLARKATKGIVEHDFVIKKIPFKMVDVGGQRSQRQKWFQCFDGITSILFMVSSSEYDQVLMEDRRTNRLVESMNIFETIVNNKLFFNVSIILFLNKMDLLVEKVKTVSIKKHFPDFRGDPHRLEDVQRYLVQCFDRKRRNRSKPLFHHFTTAIDTENVRFVFHAVKDTILQENLKDIMLQ

Variants of: B1
Experiment: NanoBiT nLuc complementation assay in live HEK-293 cells (Nano-Glo live cell assay), area under the curve
Details: with LgBiT-Gα12, 18 hours post-transfection media exchanged with serum-free DMEM, 6 hours later luciferase activity monitored for 60 minutes, parent: 2.2e+07, read off a plot
In your answer, state the number alone without any accompanying words.

chain 1 K223A = 8.9e+06
chain 1 S220A = 1.7e+07

Now examine the next entry.
Q. Quick one: response (Arbitrary Units) of chain 1 R225A ?
A. 1.1e+07
